# TESTED SYSTEM: T1, human GIP receptor (human, UniProt P48546 22-466)
# T1 sequence (looked up): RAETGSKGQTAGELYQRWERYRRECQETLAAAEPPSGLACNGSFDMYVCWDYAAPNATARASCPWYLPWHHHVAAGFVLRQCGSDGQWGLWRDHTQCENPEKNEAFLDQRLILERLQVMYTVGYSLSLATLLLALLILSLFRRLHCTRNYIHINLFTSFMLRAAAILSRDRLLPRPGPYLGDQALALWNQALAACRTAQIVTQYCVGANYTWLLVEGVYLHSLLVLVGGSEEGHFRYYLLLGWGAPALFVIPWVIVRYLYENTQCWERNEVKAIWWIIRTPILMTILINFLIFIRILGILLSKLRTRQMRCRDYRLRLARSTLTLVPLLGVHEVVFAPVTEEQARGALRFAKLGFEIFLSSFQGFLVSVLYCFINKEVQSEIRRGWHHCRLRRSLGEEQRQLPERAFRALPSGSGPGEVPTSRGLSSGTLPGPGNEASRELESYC
# EXPERIMENTAL DETAILS: cell-based or functional assay
*1 amine or outer side, *2 acyl side, *3 side chain or, on linkers, in order; H or OH if unused. Where no end group is shown, it is not given here. Side-chain parts run from the residue outwards. [ ]: non-standard residue; d: D form. The star is where a group is joined. C18 diacid = O=C(O)CCCCCCCCCCCCCCCCC(=O)*; C16 diacid = O=C(O)CCCCCCCCCCCCCCC(=O)*; γGlu = O=C(O)[C@H](CCC(=O)[*:2])N[*:1]; pGlu = O=C1CC[C@@H](C(=O)O)N1; AEEA = NCCOCCOCC(=O)O
Listed below: CisBio cAMP antagonism IC50 values for each entry.
Use nM as the unit, but write only the number.

# example entries with known answers
[[record]]
binder = "EGTFISDYSIAMDRIK([AEEA-AEEA-γGlu-C16 diacid])QQDFVNWLLAQR-NH2 (not fully specified (residue 1)) [AT374]"
measured_endpoint = "CisBio cAMP antagonism IC50"
assay_result = 17.1

[[record]]
binder = "[pGlu]GTFISDYSIAMDRIK([AEEA-AEEA-γGlu-C18 diacid])QQDFVNWLLAQR-NH2 [AT381]"
measured_endpoint = "CisBio cAMP antagonism IC50"
assay_result = 13.6

[[record]]
binder = "[pGlu]GTFISDYSIAMDRIK(C16 diacid)QQDFVNWLLAQR-NH2 [AT390]"
measured_endpoint = "CisBio cAMP antagonism IC50"
assay_result = 15.9

[[record]]
binder = "EGTFISDYSIAMDRIK([AEEA-γGlu-C18 diacid])QQDFVNWLLAQR-NH2 (not fully specified (residue 1)) [AT376]"
measured_endpoint = "CisBio cAMP antagonism IC50"
assay_result = 6.81


In: For EGTFISDYSIAMDRIK([AEEA-AEEA-γGlu-C18 diacid])QQDFVNWLLAQR-NH2 (not fully specified (residue 1)) [AT377] , what is its reported CisBio cAMP antagonism IC50?
Out: 18.5
